Assay: folding stability dG unfold from chymotrypsin proteolysis; higher = more stable
METRIC_NAME: folding stability dG unfold (kcal/mol)

[[record]]
seq = "SAGGIIEIDPNGWVIRIEMYPPDGKPPKHTIPFPNATPEELIDELKDWADQLPNPGHKVKIDEITPMPSAGG [r13_29_TrROS]"
metric_name = "folding stability dG unfold"
readout_value = 0.372

[[record]]
seq = "SWWYMVKIEIENGGKPIKIPVPVNDLDDFIDNAREAIPPDLADQLPPNMEVEVEVMPIPRVDPENGKPRPSA [r9_111_TrROS]"
metric_name = "folding stability dG unfold"
readout_value = 1.42

[[record]]
seq = "SAGPKTLLLNIPPGEDVELLIGDKPYRIKVDPERLIGYAFDPETGEIFLIFHDPEKPIALITVFPSPPLSAG [r5_302_TrMRF]"
metric_name = "folding stability dG unfold"
readout_value = 2.46

[[record]]
seq = "MDIPIKELLKKAAENGVRIVFPNGAETLSIFPDGEAVVRFPVELPDRPGIPVEEVERVIKIKEDGSLEVEGS [r1_284_TrMRF]"
metric_name = "folding stability dG unfold"
readout_value = -1.08


###

Each entry below lists one item and its recorded folding stability dG unfold value.
Assay: folding stability dG unfold from trypsin proteolysis; higher = more stable
METRIC_NAME: folding stability dG unfold (kcal/mol)

[[record]]
seq = "SAGGPEELELTLSIDYPDLTPEQAAEEARRLLEGLGFEVKEIPVTVEPGPGKVTVRARVTVLPPEERSAGGS [r16_287_TrMRF]"
uom = "kcal/mol"
readout_value = 0.859

[[record]]
seq = "SAGGIDLSKLPKNSIVVITKVKVYPTKVGEPDGEGEGYVEVELRVFRNIPPTGKILSSPLPVKFKIASAGGS [r8_486_TrMRF]"
uom = "kcal/mol"
readout_value = 1.19

[[record]]
seq = "SAGGSAGGSAGGPPSVPITITLIILFPDGYFIVIELTIEVPPDGEIEIKIKILHIFPVKSAGGSAGGSAGGS [r10_1139_TrROS]"
uom = "kcal/mol"
readout_value = 3.1

[[record]]
seq = "SAGGSMIFETLGSEKLIKEKAEERGLDLVEYSVEGNKFFALLKDPAGKLVLTYSDEASVKKLGLDLSKLSAG [r5_12_JUSTAS]"
uom = "kcal/mol"
readout_value = -0.265

[[record]]
seq = "SAGGSAGGSAGSLPEKLKEAFPDLGVTVTSVDPSGTVTVEVDGPEEVKEKVEKAVAEILKSAGGSAGGSAGG [r11_418_JUSTAS]"
uom = "kcal/mol"
readout_value = -0.576

[[record]]
seq = "SAGGSMVEVIVIDKDGKEHKILIPPELKPEEVAEKVKKFLEDEGYEVESIEIEELPEGFSKVIVNASAGGSA [r2_148_TrMRF]"
uom = "kcal/mol"
readout_value = 2.05

[[record]]
seq = "GKAEVVRVEYDPETGALRVVLRREGADVVLEVDPETGVARVYFPADPRVLEFEFDTLEEAVDAAVALLEAGS [r1_177_TrMRF]"
uom = "kcal/mol"
readout_value = 3.59


###

Each entry below lists one item and its recorded folding stability dG unfold value.
Experiment: folding stability dG unfold from trypsin proteolysis; higher = more stable
METRIC_NAME: folding stability dG unfold (kcal/mol)

[[record]]
seq = "SAGGSAGGSAGGGVGIAEISFDPETQTVTIKAYNPETEEITEITIPVTNPLPLDLSDITSAGGSAGGSAGGS [r10_331_TrMRF]"
metric_name = "folding stability dG unfold"
readout_value = 0.477

[[record]]
seq = "MTKKTVTLPIPEPIRAAIEAGKPLPLEEIVDLVRDVVAKELGFKDVKVLSVEIKPLPNGEIVVEVTVEFPES [r1_290_TrMRF]"
metric_name = "folding stability dG unfold"
readout_value = 3.09

[[record]]
seq = "SAGGFIRIETPNGKKISPEVREEAEEAIRDGDWDDAVKKISDWLRERFGHPMPIKIEVMMPPPKPPKSAGGS [r8_48_TrROS]"
metric_name = "folding stability dG unfold"
readout_value = 0.547

[[record]]
seq = "SAGGSAGGSAGGMTITVNGPTATITYPDGSVETIPLTSPEEFEALKAAHPDVEATPASPSAGGSAGGSAGGS [r10_1211_JUSTAS]"
metric_name = "folding stability dG unfold"
readout_value = 0.353

